# Tested on: Bacillus anthracis
# ASSAY_PROTOCOL: Antibacterial activity against Bacillus anthracis Sterne assessed as growth inhibition at 30 uM measured every 2 mins for 16 to 20 hrs by spectramax 96-well plate reader analysis
# Assay type: functional
# ASSAY_CONDITIONS: read-out: GI
I'd be grateful if you could share measured inhibition of growth at 30 µM for these entries.
Numbers only, in %.

Use the examples below as a reference point.
| COMPOUND | inhibition of growth at 30 µM, % |
| --- | --- |
| COc1ccc(-c2ccc(/C=C3/NC(=S)N(C(Cc4ccccc4)C(=O)O)C3=O)s2)cc1 (centres undefined) | 100 |
| O=C1NC(=S)NC(=O)C1=Cc1ccc(-c2ccc(Br)c(Cl)c2)o1 | 96.6 |
| O=C(O)C(Cc1ccccc1)N1C(=O)/C(=C\c2ccc(-c3ccc(OC(F)(F)F)cc3)o2)NC1=S (centres undefined) | 100 |
| NC(=O)C(Cc1ccccc1)N1C(=O)/C(=C\c2ccc(-c3ccc(Cl)c(Cl)c3)o2)NC1=S (centres undefined) | 90 |
| O=C(O)C(Cc1ccccc1)N1C(=O)/C(=C\c2ccc(-c3ccccc3)o2)NC1=S (centres undefined) | 20 |
| N#CNC(=O)C(Cc1ccccc1)N1C(=O)/C(=C\c2ccc(-c3ccc(Cl)c(Cl)c3)o2)NC1=S (centres undefined) | 100 |

# map each compound to its inhibition of growth at 30 µM
1. CCC(C(=O)O)N1C(=O)/C(=C\c2ccc(-c3ccc(Cl)c(Cl)c3)o2)NC1=S (centres undefined)
2. O=C(O)C(Cc1ccccc1)N1C(=O)/C(=C\c2ccc(-c3ccc(Br)c(Cl)c3)o2)NC1=S (centres undefined)
3. O=C(NS(=O)(=O)C(F)(F)F)C(Cc1ccccc1)N1C(=O)/C(=C\c2ccc(-c3ccc(Cl)c(Cl)c3)o2)NC1=S (centres undefined)

1. 90
2. 100
3. 100
